- protocol: total protein half-life in vivo (active degradation + dilution); higher = more stable protein
- run parameters: E. coli NCM3722 delta-lon; growth: N-lim chemostat; doubling time 6 h
As shown below, each of these sequences has a reported total protein half-life in vivo value.
A number alone suffices; assume h.

MTQYSSLLRGLAAGSAFLFLFAPTAFAAEQTVEAPSVDARAWILMDYASGKVLAEGNADEKLDPASLTKIMTSYVVGQALKADKIKLTDMVTVGKDAWATGNPALRGSSVMFLKPGDQVSVADLNKGVIIQSGNDACIALADYVAGSQESFIGLMNGYAKKLGLTNTTFQTVHGLDAPGQFSTARDMALLGKALIHDVPEEYAIHKEKEFTFNKIRQPNRNRLLWSSNLNVDGMKTGTTAGAGYNLVASATQGDMRLISVVLGAKTDRIRFNESEKLLTWGFRFFETVTPIKPDATFVTQRVWFGDKSEVNLGAGEAGSVTIPRGQLKNLKASYTLTEPQLTAPLKKGQVVGTIDFQLNGKSIEQRPLIVMENVEEGGFFGRVWDFVMMKFHQWFGSWFS	6.18

# next sequence below
// Input: "MDVRQSIHSAHAKTLDTQGLRNEFLVEKVFVADEYTMVYSHIDRIIVGGIMPITKTVSVGGEVGKQLGVSYFLERRELGVINIGGAGTITVDGQCYEIGHRDALYVGKGAKEVVFASIDTGTPAKFYYNCAPAHTTYPTKKVTPDEVSPVTLGDNLTSNRRTINKYFVPDVLETCQLSMGLTELAPGNLWNTMPCHTHERRMEVYFYFNMDDDACVFHMMGQPQETRHIVMHNEQAVISPSWSIHSGVGTKAYTFIWGMVGENQVFDDMDHVAVKDLR" . Output its total protein half-life in vivo only.
3.28

###

- protocol: total protein half-life in vivo (active degradation + dilution); higher = more stable protein
- run parameters: wild type E. coli NCM3722; growth: P-lim chemostat; doubling time 12 h
Label yes (1) when total protein half-life in vivo is at or above 10 h; otherwise label no (0).

Recorded results for 5 sequences are shown here.
MAANAFVRARIDEDLKNQAADVLAGMGLTISDLVRITLTKVAREKALPFDLREPNQLTIQSIKNSEAGIDVHKAKDADDLFDKLGI	no (0)
MEYQLTLNWPDFLERHWQKRPVVLKRGFNNFIDPISPDELAGLAMESEVDSRLVSHQDGKWQVSHGPFESYDHLGETNWSLLVQAVNHWHEPTAALMRPFRELPDWRIDDLMISFSVPGGGVGPHLDQYDVFIIQGTGRRRWRVGEKLQMKQHCPHPDLLQVDPFEAIIDEELEPGDILYIPPGFPHEGYALENAMNYSVGFRAPNTRELISGFADYVLQRELGGNYYSDPDVPPRAHPADVLPQEMDKLREMMLELINQPEHFKQWFGEFISQSRHELDIAPPEPPYQPDEIYDALKQGEVLVRLGGLRVLRIGDDVYANGEKIDSPHRPALDALASNIALTAENFGDALEDPSFLAMLAALVNSGYWFFEG	yes (1)
MIPFNAPPVVGTELDYMQSAMGSGKLCGDGGFTRRCQQWLEQRFGSAKVLLTPSCTASLEMAALLLDIQPGDEVIMPSYTFVSTANAFVLRGAKIVFVDVRPDTMNIDETLIEAAITDKTRVIVPVHYAGVACEMDTIMALAKKHNLFVVEDAAQGVMSTYKGRALGTIGHIGCFSFHETKNYTAGGEGGATLINDKALIERAEIIREKGTNRSQFFRGQVDKYTWRDIGSSYLMSDLQAAYLWAQLEAADRINQQRLALWQNYYDALAPLAKAGRIELPSIPDGCVQNAHMFYIKLRDIDDRSALINFLKEAEIMAVFHYIPLHGCPAGEHFGEFHGEDRYTTKESERLLRLPLFYNLSPVNQRTVIATLLNYFS	yes (1)
MSVIETATVPLAQQQADALLNVKDLRVTFSTPDGDVTAVNDLNFSLRAGETLGIVGESGSGKSQTAFALMGLLAANGRIGGSATFNGREILNLPEHELNKLRAEQISMIFQDPMTSLNPYMRVGEQLMEVLMLHKNMSKAEAFEESVRMLDAVKMPEARKRMKMYPHEFSGGMRQRVMIAMALLCRPKLLIADEPTTALDVTVQAQIMTLLNELKREFNTAIIMITHDLVVVAGICDKVLVMYAGRTMEYGNARDVFYQPVHPYSIGLLNAVPRLDAEGETMLTIPGNPPNLLRLPKGCPFQPRCPHAMEICSSAPPLEEFTPGRLRACFKPVEELL	yes (1)
MSQLPGLSRETRESIAMYHLRVPQTEEELERYYQFRWEMLRKPLHQPKGSERDAWDAMAHHQMVVDEQGNLVAVGRLYINADNEASIRFMAVHPDVQDKGLGTLMAMTLESVARQEGVKRVTCSAREDAVEFFAKLGFVNQGEITTPTTTPIRHFLMIKPVATLDDILHRGDWCAQLQQAWYEHIPLSEKMGVRIQQYTGQKFITTMPETGNQNPHHTLFAGSLFSLATLTGWGLIWLMLRERHLGGTIILADAHIRYSKPISGKPHAVADLGALSGDLDRLARGRKARVQMQVEIFGDETPGAVFEGTYIVLPAKPFGPYEEGGNEEE [P0ADQ2]	yes (1)

Quick check, total protein half-life in vivo >= 10 h? MPAENIVEVHHLKKSVGQGEHELSILTGVELVVKRGETIALVGESGSGKSTLLAILAGLDDGSSGEVSLVGQPLHNMDEEARAKLRAKHVGFVFQSFMLIPTLNALENVELPALLRGESSAESRNGAKALLEQLGLGKRLDHLPAQLSGGEQQRVALARAFNGRPDVLFADEPTGNLDRQTGDKIADLLFSLNREHGTTLIMVTHDLQLAARCDRCLRLVNGQLQEEA [P0A9T8]
yes (1)

Quick check, total protein half-life in vivo >= 10 h? "MMGKLIWLMGPSGSGKDSLLAELRLREQTQLLVAHRYITRDASAGSENHIALSEQEFFTRAGQNLLALSWHANGLYYGVGVEIDLWLHAGFDVLVNGSRAHLPQARARYQSALLPVCLQVSPEILRQRLENRGRENASEINARLARAARYTPQDCHTLNNDGSLRQSVDTLLTLIHQKEKHHACL"
no (0)

Quick check, total protein half-life in vivo >= 10 h? MIDYEVLRFIWWLLVGVLLIGFAVTDGFDMGVGMLTRFLGRNDTERRIMINSIAPHWDGNQVWLITAGGALFAAWPMVYAAAFSGFYVAMILVLASLFFRPVGFDYRSKIEETRWRNMWDWGIFIGSFVPPLVIGVAFGNLLQGVPFNVDEYLRLYYTGNFFQLLNPFGLLAGVVSVGMIITQGATYLQMRTVGELHLRTRATAQVAALVTLVCFALAGVWVMYGIDGYVVKSTMDHYAASNPLNKEVVREAGAWLVNFNNTPILWAIPALGVVLPLLTILTARMDKAAWAFVFSSLTLACIILTAGIAMFPFVMPSSTMMNASLTMWDATSSQLTLNVMTWVAVVLVPIILLYTAWCYWKMFGRITKEDIERNTHSLY [P0ABK2]
yes (1)

Quick check, total protein half-life in vivo >= 10 h? MKRYTPDFPEMMRLCEMNFSQLRRLLPRNDAPGETVSYQVANAQYRLTIVESTRYTTLVTIEQTAPAISYWSLPSMTVRLYHDAMVAEVCSSQQIFRFKARYDYPNKKLHQRDEKHQINQFLADWLRYCLAHGAMAIPVY [P0ADU7]
no (0)

Quick check, total protein half-life in vivo >= 10 h? MAAINTKVKKAVIPVAGLGTRMLPATKAIPKEMLPLVDKPLIQYVVNECIAAGITEIVLVTHSSKNSIENHFDTSFELEAMLEKRVKRQLLDEVQSICPPHVTIMQVRQGLAKGLGHAVLCAHPVVGDEPVAVILPDVILDEYESDLSQDNLAEMIRRFDETGHSQIMVEPVADVTAYGVVDCKGVELAPGESVPMVGVVEKPKADVAPSNLAIVGRYVLSADIWPLLAKTPPGAGDEIQLTDAIDMLIEKETVEAYHMKGKSHDCGNKLGYMQAFVEYGIRHNTLGTEFKAWLEEEMGIKK [P0AEP3]
yes (1)

###

As shown below, each of these sequences has a reported total protein half-life in vivo value.
- protocol: total protein half-life in vivo (active degradation + dilution); higher = more stable protein
- run parameters: E. coli NCM3722 delta-clpP; growth: N-lim chemostat; doubling time 6 h
A number alone suffices; assume h.

MHKAILNSDLIATKAGDVTVYNYDGETREYISTSNEYLAVGVGIPACSCLDAPGTHKAGYAICRSADFNSWEYVPDHRGETVYSTKTGESKEIKAPGDYPENTTTIAPLSPYDKWDGEKWVTDTEAQHSAAVDAAEAQRQSLIDAAMASISLIQLKLQAGRKLTQAETTRLNAVLDYIDAVTATDTSTAPDVIWPELPEA	2.37

# next sequence below
// Input: "MSLFHLIAPSGYCIKQHAALRGIQRLTDAGHQVNNVEVIARRCERFAGTETERLEDLNSLARLTTPNTIVLAVRGGYGASRLLADIDWQALVARQQHDPLLICGHSDFTAIQCGLLAHGNVITFSGPMLVANFGADELNAFTEHHFWLALRNETFTIEWQGEGPTCRAEGTLWGGNLAMLISLIGTPWMPKIENGILVLEDINEHPFRVERMLLQLYHAGILPRQKAIILGSFSGSTPNDYDAGYNLESVYAFLRSRLSIPLITGLDFGHEQRTVTLPLGAHAILNNTREGTQLTISGHPVLKM" . Output its total protein half-life in vivo only.
3.76

Source listed as the supplement of paper PMC11246515.
